Molecular target: T1, recombinant ILT2 (human) (human, UniProt Q8NHL6 24-461)
T1 construct: also called recombinant ILT2 peptide; ILT2 protein
T1 sequence (Q8NHL6 24-461 limits assumed): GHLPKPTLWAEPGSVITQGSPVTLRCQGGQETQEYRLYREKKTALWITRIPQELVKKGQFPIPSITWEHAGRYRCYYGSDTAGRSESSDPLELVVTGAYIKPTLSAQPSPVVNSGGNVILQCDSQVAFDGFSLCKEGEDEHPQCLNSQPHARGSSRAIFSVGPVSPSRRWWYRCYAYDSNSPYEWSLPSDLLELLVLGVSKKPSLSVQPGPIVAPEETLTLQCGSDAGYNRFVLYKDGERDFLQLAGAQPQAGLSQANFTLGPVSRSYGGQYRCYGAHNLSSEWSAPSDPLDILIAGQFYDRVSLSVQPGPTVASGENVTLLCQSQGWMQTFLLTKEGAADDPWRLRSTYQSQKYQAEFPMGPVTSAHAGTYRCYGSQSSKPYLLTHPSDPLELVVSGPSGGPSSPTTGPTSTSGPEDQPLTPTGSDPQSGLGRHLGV
Assay: SPR (Biacore T200); KD relative to Control (chimeric 15G8)
Measured Metric: Relative KD
Respond using a number only.

Some binders with known Relative KD results, for comparison:
humanized 15G8 VH1/Vk4 (antibody, IgG4, V domains shown, Humanized IgG4 (S228P, L235E), kappa; tested as supernatant of transiently transfected HEK EBNA cells) VH: DVQLQGSGPGLVKPSETLSLTCSVTGYSITSGYYWNWIRQFPGKKLEWMGYISYDGSNNYNPSLKNRITISRDTSKNQFSLKLNSVTAADTATYYCAHGYSYYYAMDAWGQGTSVTVSS VL: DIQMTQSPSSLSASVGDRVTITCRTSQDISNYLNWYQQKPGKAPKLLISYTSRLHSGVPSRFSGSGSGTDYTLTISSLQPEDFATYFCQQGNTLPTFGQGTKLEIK :: 1.48
humanized 15G8 VH2/Vk2 (antibody, IgG4, V domains shown, Humanized IgG4 (S228P, L235E), kappa; tested as supernatant of transiently transfected HEK EBNA cells) VH: DVQLQGSGPGLVKPSETLSLTCSVTGYSITSGYYWNWIRQFPGKKLEWMGYISYDGSNNYNPSLKNRITISRDTSKNQFSLKLSSVTAADTATYYCAHGYSYYYAMDAWGQGTTVTVSS VL: DIQMTQSPSSLSASVGDRVTITCRTSQDISNYLNWYQQKPGKAVKLLISYTSRLHSGVPSRFSGSGSGTDYTLTISSLQPEDFATYFCQQGNTLPTFGQGTKLEIK :: 0.7
15G8-13 (humanized 15G8, VH1/Vk3, alanine variant A108) (antibody, human IgG4 S228P, kappa, V domains shown, Humanized IgG4 (S228P, L235E), kappa; also called 15G8 humanized antibody; BND-22) VH: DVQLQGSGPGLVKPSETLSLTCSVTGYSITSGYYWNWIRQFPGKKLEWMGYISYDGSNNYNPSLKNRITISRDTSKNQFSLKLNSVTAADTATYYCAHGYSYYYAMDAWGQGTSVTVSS VL: DIQMTQSPSSLSASVGDRVTITCRTSQDISNYLNWYQQKPGKAVKLLISYTSRLHSGVPSRFSGSGSGTDYTLTISSLQPEDFATYYCQQGNTLPTFGQGTKLEIKR :: 0.55
15G8-54 (humanized 15G8, VH5/Vk4) (antibody, IgG4, V domains shown, Humanized IgG4 (S228P, L235E), kappa) VH: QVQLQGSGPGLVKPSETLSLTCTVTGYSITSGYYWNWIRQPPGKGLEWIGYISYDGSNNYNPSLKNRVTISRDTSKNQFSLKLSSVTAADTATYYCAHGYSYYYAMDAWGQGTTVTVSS VL: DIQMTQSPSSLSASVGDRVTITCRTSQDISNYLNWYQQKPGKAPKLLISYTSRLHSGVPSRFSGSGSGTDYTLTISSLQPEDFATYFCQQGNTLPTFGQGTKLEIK :: 0.82

Given the binder humanized 15G8 VH4/Vk2 (antibody, IgG4, V domains shown, Humanized IgG4 (S228P, L235E), kappa; tested as supernatant of transiently transfected HEK EBNA cells) VH: QVQLQGSGPGLVKPSETLSLTCSVTGYSITSGYYWNWIRQPPGKGLEWMGYISYDGSNNYNPSLKNRVTISRDTSKNQFSLKLSSVTAADTATYYCAHGYSYYYAMDAWGQGTTVTVSS VL: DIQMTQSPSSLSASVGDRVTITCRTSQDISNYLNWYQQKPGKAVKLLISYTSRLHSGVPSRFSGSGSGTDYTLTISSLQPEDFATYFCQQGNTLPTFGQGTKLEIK , write its reported Relative KD.
0.79

Provide measured Relative KD value, entry: humanized 15G8 VH3/Vk1 (antibody, IgG4, V domains shown, Humanized IgG4 (S228P, L235E), kappa; tested as supernatant of transiently transfected HEK EBNA cells) VH: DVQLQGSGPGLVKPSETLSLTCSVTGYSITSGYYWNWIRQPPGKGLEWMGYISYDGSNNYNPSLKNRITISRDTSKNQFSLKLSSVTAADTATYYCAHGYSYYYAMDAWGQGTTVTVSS VL: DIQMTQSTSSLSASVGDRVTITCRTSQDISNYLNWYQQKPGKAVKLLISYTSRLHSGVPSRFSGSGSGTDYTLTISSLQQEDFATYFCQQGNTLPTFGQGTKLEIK
0.68
